meta.source: PubChem BioAssay AID1963429

System: 126254-015-R-J1-PDC complex spheroid growth, % test/control;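 note: spheroids exposed to compound for seven days; 100% = DMSO vehicle control wells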
measurement.protocol: Anticancer human tumor 126254-015-R-J1-PDC patient-derived soft tissue sarcoma cell line growth inhibition [Asc]
details: second compound 0.1 µM; first compound 0.1 µM; stronger effect = lower value
Reported viability, T/C values for the following compounds.
measurement.kind: viability, T/C (%)

INSERT INTO results (compound, study_target, measurement_kind, experimental_value) VALUES
  ('COc1c(OCCCN2CCOCC2)ccc2c3n(c(=NC(=O)c4cnc(N)nc4)nc12)CCN3 + Cc1c(S(C)(=O)=O)c(-c2cc(F)cc(N3CCN(c4ccc(NS(=O)(=O)c5ccc(NC(CCN6CCC(C(=O)OCCCP(=O)(O)O)CC6)CSc6ccccc6)c(S(=O)(=O)C(F)(F)F)c5)cc4)CC3)c2)c(-c2ccc(Cl)cc2)n1C(C)C', '126254-015-R-J1-PDC complex spheroid growth, % test/control', 'viability, T/C', 28.3),
  ('CNC(C)C(=O)NC1CN(S(=O)(=O)c2cccc(S(=O)(=O)N3CCC4CCC(C(=O)NC(c5ccccc5)c5ccccc5)N4C(=O)C(NC(=O)C(C)NC)C3)c2)CCC2CCC(C(=O)NC(c3ccccc3)c3ccccc3)N2C1=O (stereo not drawn) + Cc1c(S(C)(=O)=O)c(-c2cc(F)cc(N3CCN(c4ccc(NS(=O)(=O)c5ccc(NC(CCN6CCC(C(=O)OCCCP(=O)(O)O)CC6)CSc6ccccc6)c(S(=O)(=O)C(F)(F)F)c5)cc4)CC3)c2)c(-c2ccc(Cl)cc2)n1C(C)C', '126254-015-R-J1-PDC complex spheroid growth, % test/control', 'viability, T/C', 55.6),
  ('C=C(F)C(=O)N1CCN(c2nc(OCC3CCCN3C)nc3c2CCN(c2cccc4cccc(Cl)c24)C3)CC1CC#N (stereo not drawn) + CNC(C)C(=O)NC1CN(S(=O)(=O)c2cccc(S(=O)(=O)N3CCC4CCC(C(=O)NC(c5ccccc5)c5ccccc5)N4C(=O)C(NC(=O)C(C)NC)C3)c2)CCC2CCC(C(=O)NC(c3ccccc3)c3ccccc3)N2C1=O', '126254-015-R-J1-PDC complex spheroid growth, % test/control', 'viability, T/C', 67.3);
